Target: human PPARα (hPPARα) (Homo sapiens)
Sequence (Q07869 1-468): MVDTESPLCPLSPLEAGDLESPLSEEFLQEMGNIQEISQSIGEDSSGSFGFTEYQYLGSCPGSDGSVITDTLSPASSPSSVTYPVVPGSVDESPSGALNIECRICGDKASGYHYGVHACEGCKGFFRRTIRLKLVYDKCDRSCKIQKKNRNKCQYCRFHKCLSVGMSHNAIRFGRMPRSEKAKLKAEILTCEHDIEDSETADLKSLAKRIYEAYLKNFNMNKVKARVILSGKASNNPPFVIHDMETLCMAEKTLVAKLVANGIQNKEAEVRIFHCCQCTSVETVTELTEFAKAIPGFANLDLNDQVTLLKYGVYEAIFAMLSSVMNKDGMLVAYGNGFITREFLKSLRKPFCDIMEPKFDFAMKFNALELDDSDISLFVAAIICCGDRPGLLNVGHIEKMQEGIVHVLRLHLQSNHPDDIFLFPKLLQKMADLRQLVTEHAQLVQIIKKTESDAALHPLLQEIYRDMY
Assay: cell-based
Details: EC50 hPPARα (cellular potency), luciferase reporter
metric: EC50

INSERT INTO assay_data (compoundstring, metric, measuredvalue) VALUES
  ('Cc1cc(CNc2cccc(C(=O)O)c2)ccc1OCc1ccc(F)cc1', 'EC50', '~40 nM');
